Data origin: patent US20250268826A1

assay: LNP size and polydispersity index (PDI) by dynamic light scattering (DLS)
Format: physicochemical
protocol conditions: Table 6; LNP 60:0:38.5:1.5 mol %; hEPO mRNA; N:P 6
Assign Size to each entry below.
Write it as a number; the unit nm goes unstated.

Sure, the documented Size for CCCCCCCCC(CCCCCC)C(=O)OCCN(CCOC(=O)C(CCCCCC)CCCCCCCC)C(=O)CCN(C)C (stereo not drawn) is 131.4

Sure, the documented Size for CCCCCCCCC(CCCCCC)C(=O)OCCN(CCOC(=O)C(CCCCCC)CCCCCCCC)C(=O)CC(C)N (stereo not drawn) is 87.6

Sure, the documented Size for CCCCCCCCC(CCCCCC)C(=O)OCCN(CCOC(=O)C(CCCCCC)CCCCCCCC)C(=O)CCN (stereo not drawn) is 93.6

Sure, the documented Size for CCCCCCCCC(CCCCCC)C(=O)OCCN(CCOC(=O)C(CCCCCC)CCCCCCCC)C(=O)CCC(C)N (stereo not drawn) is 84.7

Sure, the documented Size for CCCCCCCCC(CCCCCC)C(=O)OCCN(CCOC(=O)C(CCCCCC)CCCCCCCC)C(=O)CCCN (stereo not drawn) is 81.1

Sure, the documented Size for CCCCCCCCC(CCCCCC)C(=O)OCCN(CCOC(=O)C(CCCCCC)CCCCCCCC)C(=O)CCCN(C)C (stereo not drawn) is 114.7

---

assay: LNP size and polydispersity index (PDI) by dynamic light scattering (DLS)
Type: physicochemical
protocol conditions: Table 6; LNP 50:10:38.5:1.5 mol %; hEPO mRNA; N:P 6
Assign PDI to each entry below.
Response field accepts a number only; no unit should be typed.

Sure, the documented PDI for CCCCCCCCC(CCCCCC)C(=O)OCCN(CCOC(=O)C(CCCCCC)CCCCCCCC)C(=O)CCN (stereo not drawn) is 0.436

Sure, the documented PDI for CCCCCCCCC(CCCCCC)C(=O)OCCN(CCOC(=O)C(CCCCCC)CCCCCCCC)C(=O)CCN(C)C (stereo not drawn) is 0.114

Sure, the documented PDI for CCCCCCCCC(CCCCCC)C(=O)OCCN(CCOC(=O)C(CCCCCC)CCCCCCCC)C(=O)CCCN(C)C (stereo not drawn) is 0.126

Sure, the documented PDI for CCCCCCCCC(CCCCCC)C(=O)OCCN(CCOC(=O)C(CCCCCC)CCCCCCCC)C(=O)CCC(C)N (stereo not drawn) is 0.214

Sure, the documented PDI for CCCCCCCCC(CCCCCC)C(=O)OCCN(CCOC(=O)C(CCCCCC)CCCCCCCC)C(=O)CC(C)N (stereo not drawn) is 0.224

Sure, the documented PDI for CCCCCCCCC(CCCCCC)C(=O)OCCN(CCOC(=O)C(CCCCCC)CCCCCCCC)C(=O)CCCN (stereo not drawn) is 0.281

---

assay: LNP Zeta potential measured using a Zetasizer (Malvern)
Assay type: physicochemical
protocol conditions: Table 5; LNP 50:10:38.5:1.5 mol %; hEPO mRNA; N:P 6
measured endpoint: Zeta potential (mV)
Write it as a number; the unit mV goes unstated.

Sure, the documented Zeta potential for CCCCCCCCC(CC)C(=O)OCCN(CCOC(=O)C(CC)CCCCCCCC)C(=O)CN (stereo not shown) [Compound 603] is −3.116

Sure, the documented Zeta potential for CCCCCC(CCCCC)C(=O)OCCN(CCOC(=O)C(CCCCC)CCCCC)C(=O)C(N)Cc1ccccc1 (stereo not shown) [Compound 615] is −11.83

Sure, the documented Zeta potential for CCCCCCCCC(CC)C(=O)OCCN(CCOC(=O)C(CC)CCCCCCCC)C(=O)C(C)N (stereo not shown) [Compound 610] is −1.535

Sure, the documented Zeta potential for CCCCCCCC(CCCCCCC)C(=O)OCCN(CCOC(=O)C(CCCCCCC)CCCCCCC)C(=O)C(N)Cc1ccccc1 (stereo not shown) [Compound 618] is −13.69
